- Tested on: intestinal T cell line 437.1.3
- Assay protocol: T cell proliferation assay, polyclonal T cell line 437.1.3
- Type: cell-based, human
- Design: key: −: no response; Stimulatory index (SI; T + APC + TG2-treated peptide divided by T + APC) of 3-10; ++: SI above 10
- Particulars: DQ2+ APC, 5 μM TG2-treated peptide, 3H thymidine incorporation
- Description: T cell assays—The generation of polyclonal gluten-specific T cell lines derived from ex vivo gluten challenged small intestinal biopsy specimens of adult Celiac Sprue patients have been described elsewhere. […] The proliferation in the wells was evaluated by ^3H thymidine incorporation from 48-72 hours after the addition of the T cells.
Test readout: Response to TG2-treated gluten peptides (stimulatory index)

>>> print(df.to_string())
                               substance  reading
0                     GIIQPQQPAQL [γ-II]        −
1          QQxSQPQxPQQQQxPQQPQQF [Glu-5]        −
2  LQPQQPFPQQPQQPYPQQPQ [γ-III and γ-VI]        −

---

- Test system: intestinal T cell line 502.1.2
- Assay protocol: T cell proliferation assay, polyclonal T cell line 502.1.2
- Type: cell-based, human
- Particulars: DQ2+ APC, 5 μM TG2-treated peptide, 3H thymidine incorporation
- Description: T cell assays—The generation of polyclonal gluten-specific T cell lines derived from ex vivo gluten challenged small intestinal biopsy specimens of adult Celiac Sprue patients have been described elsewhere. […] The proliferation in the wells was evaluated by ^3H thymidine incorporation from 48-72 hours after the addition of the T cells.
Test readout: Response to TG2-treated gluten peptides (stimulatory index)

                                  substance                   system_tested           reading
0                        QLQPFPQPQLPY [α-I]  intestinal T cell line 502.1.2  ++ (SI above 10)
1                        GIIQPQQPAQL [γ-II]  intestinal T cell line 502.1.2                 −
2             QQxSQPQxPQQQQxPQQPQQF [Glu-5]  intestinal T cell line 502.1.2                 −
3                     QPQQPQQSFPQQQRP [γ-I]  intestinal T cell line 502.1.2                 −
4  LQLQPFPQPQLPYPQPQLPYPQPQLPYPQPQPF [αG-33]  intestinal T cell line 502.1.2  ++ (SI above 10)

---

- System: intestinal T cell line 496.1.2
- Assay protocol: T cell proliferation assay, polyclonal T cell line 496.1.2
- Assay type: cell-based, human
- Particulars: DQ2+ APC, 5 μM TG2-treated peptide, 3H thymidine incorporation
Test readout: Response to TG2-treated gluten peptides (stimulatory index)

>>> df
                                  substance           reading
0                        QLQPFPQPQLPY [α-I]  ++ (SI above 10)
1  LQLQPFPQPQLPYPQPQLPYPQPQLPYPQPQPF [αG-33]  ++ (SI above 10)
2                        GIIQPQQPAQL [γ-II]  ++ (SI above 10)
3                     QPQQPQQSFPQQQRP [γ-I]                 −
4             QQxSQPQxPQQQQxPQQPQQF [Glu-5]                 −

---

- System: intestinal T cell line 488.3.1
- Assay protocol: T cell proliferation assay, polyclonal T cell line 488.3.1
- Format: cell-based, human
- Particulars: DQ2+ APC, 5 μM TG2-treated peptide, 3H thymidine incorporation
Test readout: Response to TG2-treated gluten peptides (stimulatory index)

>>> df
                                  substance           reading
0  LQLQPFPQPQLPYPQPQLPYPQPQLPYPQPQPF [αG-33]  ++ (SI above 10)
1                        GIIQPQQPAQL [γ-II]                 −
2                     QPQQPQQSFPQQQRP [γ-I]                 −
3             QQxSQPQxPQQQQxPQQPQQF [Glu-5]                 −
4                     PQPQLPYPQPQLPY [α-II]  ++ (SI above 10)

---

- Tested on: intestinal T cell line 491.1.3
- Assay protocol: T cell proliferation assay, polyclonal T cell line 491.1.3
- Type: cell-based, human
- Set-up: key: −: no response; Stimulatory index (SI; T + APC + TG2-treated peptide divided by T + APC) of 3-10; ++: SI above 10
- Particulars: DQ2+ APC, 5 μM TG2-treated peptide, 3H thymidine incorporation
Test readout: Response to TG2-treated gluten peptides (stimulatory index)

                                  substance           reading
0                        GIIQPQQPAQL [γ-II]                 −
1                     PQPQLPYPQPQLPY [α-II]  ++ (SI above 10)
2     LQPQQPFPQQPQQPYPQQPQ [γ-III and γ-VI]                 −
3  LQLQPFPQPQLPYPQPQLPYPQPQLPYPQPQPF [αG-33]  ++ (SI above 10)
